Where these numbers come from: ChEMBL document CHEMBL1137710

system: U-251; assay: Growth inhibition of human U251 cells after 48 hrs by sulforhodamine B assay; type: functional; conditions: U-251, 48 h
LC50 (50% net cell kill) under 80 µM gets YES, anything at or over 80 µM gets NO.

INSERT INTO assay_data (molecular_string, category_label) VALUES
  ('COc1ccc(CNc2nc3cc(N)cc(N)c3nc2-c2ccccc2)cc1', 'YES'),
  ('Nc1cc(N)c2nc(-c3ccccc3)c(NCc3ccc(F)cc3)nc2c1', 'YES'),
  ('Nc1cc(N)c2nc(-c3ccccc3)c(Sc3ccc(Cl)c(Cl)c3)nc2c1', 'NO'),
  ('Nc1cc(N)c2nc(-c3ccccc3)c(Oc3ccc(Cl)c(Cl)c3)nc2c1', 'NO'),
  ('COc1cc(CNc2nc3cc(N)cc(N)c3nc2-c2ccccc2)cc(OC)c1OC', 'YES'),
  ('COc1ccc(Sc2nc3cc(N)cc(N)c3nc2-c2ccccc2)cc1', 'NO'),
  ('Nc1cc(N)c2nc(-c3ccccc3)c(Sc3ccc(F)cc3)nc2c1', 'YES'),
  ('COc1ccc(CNc2nc3cc(N)cc(N)c3nc2-c2ccccc2)cc1OC', 'NO'),
  ('COc1ccc(Oc2nc3cc(N)cc(N)c3nc2-c2ccccc2)cc1', 'NO'),
  ('COc1cc(CNc2nc3cc(N)cc(N)c3nc2-c2ccccc2)cc(OC)c1', 'NO'),
  ('Nc1cc(N)c2nc(-c3ccccc3)c(Oc3ccc(F)cc3)nc2c1', 'NO'),
  ('Nc1cc(N)c2nc(-c3ccccc3)c(NCc3ccc(Cl)c(Cl)c3)nc2c1', 'NO');
